These entries and their values trace back to patent US20230183352A1.

# target-or-system: T1, Claudin 18.2 (CLDN18.2), expressed on CHOS-CLDN 18.2 / HEK293-CLDN 18.2 / HCC827-CLDN 18.2 cells (human, UniProt P56856-2 1-261)
# T1 construct: whole, on cells; The species is not repeated for the CHOS-CLDN 18.2 cells; also called claudin-18A2
# procedure-summary: FACS, CHOS-CLDN18.2 cells, 0.020 µg/ml
Listed here: items and their measured FACS reading.
Simply state the number, no unit and no words.

Below are worked cases with known answers.
[
  {
    "binder": "QP14641461 (antibody, human IgG1, kappa, V domains shown, Humanized from QP207208) VH: EVQLVQSGAEVKKPGASVKVSCKASGYTFTSYIMHWVRQAPGQGLEWIGYINPYNDGTKYNEKFKGRVTLTRDKSTSTVYMELSSLRSEDTAVYYCARLGFTTRNAMDYWGQGTLVTVSS VL: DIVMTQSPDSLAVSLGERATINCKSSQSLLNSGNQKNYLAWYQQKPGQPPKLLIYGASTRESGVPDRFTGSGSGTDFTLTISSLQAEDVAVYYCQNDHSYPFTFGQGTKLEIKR",
    "FACS reading": 19900
  },
  {
    "binder": "QP207208 (antibody, human IgG1, V domains shown, Chimeric; also called 51A3; mouse-derived chimeric antibody QP207208) VH: EVQLQQSGPELVKPGASVKMSCKASGYTFTSYIMHWVKQKPGQGLEWIGYINPYNDGTKYNEKFKGKATLTSDKSSSTVYMELSSLTSEDSAVYCCARLGFTTRNAMDYWGQGTSVTVSS VL: DIVMTQSPSSLSVSAGEKVTMNCKSSQSLLNSGNQKNYLAWYQQKPGQPPKLLIYGASTRESGVPDRFTGSGSGTDFTLTISSVQAEDLAVYYCQNDHSYPFTFGSGTKLEIK",
    "FACS reading": 11500
  }
]

Which FACS reading reading was recorded for the binder QP14651460 (antibody, human IgG1, kappa, V domains shown, Humanized from QP207208) VH: EVQLVQSGAEVKKPGASVKVSCKASGYTFTSYIMHWVRQAPGQGLEWIGYINPYNDGTKYNEKFKGRVTLTSDKSTSTVYMELSSLRSEDTAVYYCARLGFTTRNAMDYWGQGTLVTVSS VL: DIVMTQSPDSLAVSLGERATINCKSSQSLLNSGNQKNYLAWYQQKPGQPPKLLIYGASTRESGVPDRFSGSGSGTDFTLTISSLQAEDVAVYYCQNDHSYPFTFGQGTKLEIKR ?
19600
